# target.or.test.system: Cyclin-dependent kinase 2 (Homo sapiens, UniProt P24941)
observation.type: Ki (nM)

>>> value("Cc1[nH]c(Cl)c(C)c1-c1ccnc(Nc2ccc(F)cc2)n1")
360
